# ASSAYED SYSTEM: T1, wildtype feline IL-31 protein (Feline_IL31_wildtype) (feline); also: test concentration or dose not given here
# T1 chain: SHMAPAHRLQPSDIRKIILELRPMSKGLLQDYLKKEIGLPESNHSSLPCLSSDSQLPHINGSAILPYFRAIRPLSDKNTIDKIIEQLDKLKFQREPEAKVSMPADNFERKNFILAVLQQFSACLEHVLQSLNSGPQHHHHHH
# TEST DESCRIPTION: cell-based or functional assay
OBSERVATION TYPE: % Inhibition Relative to Parent (pSTAT, FCWF-4 cells)
Quote the value and follow it with the unit of measurement.

q: Bench note: what % Inhibition Relative to Parent (pSTAT, FCWF-4 cells) did A42 (antibody, V domains shown) VH: QVLLVQSGAEVRTPGASVKIFCKASGYSFTSYTIHWLRQAPAQGLEWMGNINPASGYTENNQRFKDRLTLTADTSTNTAYMELSSLRSADTAMYYCARWGFKYDGEWSFDVWGAGTTVTVSS VL: EIQMTQSPSSLSASPGDRVTITCRASQGISIWLSWYQQKPGNIPKVLINKASNLHIGVPSRFSGSGSGTDFTLTISSLEPEDAATYYCLQSQTYPLTFGGGTKLEIK show?
a: 83.6%
